Target: proMMP9(67-444;ΔFnII) (SEQ ID NO:5) (Homo sapiens, UniProt P14780, DEL216-390)
Construct: start methionine (N)
Sequence (P14780 with tags, fused parts or gaps DEL216-390): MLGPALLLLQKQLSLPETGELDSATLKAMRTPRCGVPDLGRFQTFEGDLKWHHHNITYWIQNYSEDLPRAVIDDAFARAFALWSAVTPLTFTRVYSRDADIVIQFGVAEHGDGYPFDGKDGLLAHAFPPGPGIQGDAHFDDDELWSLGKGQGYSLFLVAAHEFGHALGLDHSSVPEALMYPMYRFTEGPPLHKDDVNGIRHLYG
Test method notes: ThermoFluor binding assay with proMMP9(67-444;ΔFnII)
Condition parameters: pH 7.0
Mark 1 only when Kd stays strictly below 400 nM. Values equal to the cut-off are 0.

Consider the worked cases shown below.
1. Cc1nc(CN2CCCCC2)sc1-c1csc(Nc2cc(C(N)=O)ccc2OC(C)C)n1 = 0
2. Cc1nc(C(=O)N2CCC(O)CC2)sc1-c1csc(Nc2cc(C(N)=O)ccc2OC(C)C)n1 = 0
3. Cc1nc(C(=O)N(C)CCN(C)C)sc1-c1csc(Nc2cc(C(N)=O)ccc2OC(C)C)n1 = 0

// query In the record for "CCN(CC)S(=O)(=O)c1ccc(OC)c(Nc2nc(-c3sc(NC(C)=O)nc3C)cs2)c1" , is Kd less than 400 nM?
// result 0

// query In the record for "COc1ccc(C(N)=O)cc1Nc1nc(-c2sc(C)nc2C)cs1" , is Kd less than 400 nM?
// result 0

// query In the record for "CCOc1ccc(-c2ncco2)cc1Nc1nc(-c2sc(N)nc2C)cs1" , is Kd less than 400 nM?
// result 1

// query In the record for "CCOc1ccc(C(N)=O)cc1Nc1nc(-c2sc(N)nc2C)cs1" , is Kd less than 400 nM?
// result 1
